Known self-cleavage of a selection of variants
B1: Osa-1-4 twister ribozyme (parent)
chain: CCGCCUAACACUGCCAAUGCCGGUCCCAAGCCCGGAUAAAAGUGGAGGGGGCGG

variants of: B1; assay: self-cleavage, relative activity (ratio to wild type); higher = more cleavage; co-transcriptional
# answer = number (no unit)

variantId	self-cleavage
C15A C31G	0.05
C14U G53U	0.09
A29G U24G	0.02
A17C G45C	0.05

Request: Specify measured self-cleavage for C26G G34C .
Response: 0.08

Request: Specify measured self-cleavage for C32U G42U .
Response: 0.03

Request: Specify measured self-cleavage for A7G C15G .
Response: 0.27

Request: Specify measured self-cleavage for G22U G44A .
Response: 0.72

Request: Specify measured self-cleavage for A39C G49A .
Response: 0.07

Request: Specify measured self-cleavage for C11U C21U .
Response: 0.91

Request: Specify measured self-cleavage for C25U G47U .
Response: 0.07

Request: Specify measured self-cleavage for A39C C15U .
Response: 0.57

Request: Specify measured self-cleavage for G44C U43A .
Response: 0.74

Request: Specify measured self-cleavage for G45U G47A .
Response: 0.04
